- protocol summary: photoluminescence quantum yield (fraction); solvent given as SMILES
- protocol conditions: in c1cc(-c2cccc(-n3c4ccccc4c4ccccc43)c2)cc(-n2c3ccccc3c3ccccc32)c1
observation type: photoluminescence quantum yield
Please reply with the value in numeric form only.

Here is how some compounds turned out for photoluminescence quantum yield.
1) CC(C)(C)c1ccc2c(c1)c1cc(C(C)(C)C)ccc1n2-c1cc(C(=O)c2ccncc2)cc(-n2c3ccc(C(C)(C)C)cc3c3cc(C(C)(C)C)ccc32)c1	0.97
2) CC1(C)c2ccccc2N(c2ccc3nc4c5ccc(N6c7ccccc7C(C)(C)c7ccccc76)cc5c5cc(N6c7ccccc7C(C)(C)c7ccccc76)ccc5c4nc3c2)c2ccccc21	0.89

Shifting focus to the compound that follows.
Input line: Read the entry c1ccc2c(c1)Sc1ccc(-n3c4ccccc4c4ccccc43)cc1S2 and write its reported photoluminescence quantum yield.
Output line: 0.1
